# assayed target: Ba/F3 EGFR-Del19/T790M (Homo sapiens, UniProt P00533, T790M, cells depend on it, form not given)
# Sequence (P00533 with tags, fused parts or gaps DEL746-750/T790M, form open): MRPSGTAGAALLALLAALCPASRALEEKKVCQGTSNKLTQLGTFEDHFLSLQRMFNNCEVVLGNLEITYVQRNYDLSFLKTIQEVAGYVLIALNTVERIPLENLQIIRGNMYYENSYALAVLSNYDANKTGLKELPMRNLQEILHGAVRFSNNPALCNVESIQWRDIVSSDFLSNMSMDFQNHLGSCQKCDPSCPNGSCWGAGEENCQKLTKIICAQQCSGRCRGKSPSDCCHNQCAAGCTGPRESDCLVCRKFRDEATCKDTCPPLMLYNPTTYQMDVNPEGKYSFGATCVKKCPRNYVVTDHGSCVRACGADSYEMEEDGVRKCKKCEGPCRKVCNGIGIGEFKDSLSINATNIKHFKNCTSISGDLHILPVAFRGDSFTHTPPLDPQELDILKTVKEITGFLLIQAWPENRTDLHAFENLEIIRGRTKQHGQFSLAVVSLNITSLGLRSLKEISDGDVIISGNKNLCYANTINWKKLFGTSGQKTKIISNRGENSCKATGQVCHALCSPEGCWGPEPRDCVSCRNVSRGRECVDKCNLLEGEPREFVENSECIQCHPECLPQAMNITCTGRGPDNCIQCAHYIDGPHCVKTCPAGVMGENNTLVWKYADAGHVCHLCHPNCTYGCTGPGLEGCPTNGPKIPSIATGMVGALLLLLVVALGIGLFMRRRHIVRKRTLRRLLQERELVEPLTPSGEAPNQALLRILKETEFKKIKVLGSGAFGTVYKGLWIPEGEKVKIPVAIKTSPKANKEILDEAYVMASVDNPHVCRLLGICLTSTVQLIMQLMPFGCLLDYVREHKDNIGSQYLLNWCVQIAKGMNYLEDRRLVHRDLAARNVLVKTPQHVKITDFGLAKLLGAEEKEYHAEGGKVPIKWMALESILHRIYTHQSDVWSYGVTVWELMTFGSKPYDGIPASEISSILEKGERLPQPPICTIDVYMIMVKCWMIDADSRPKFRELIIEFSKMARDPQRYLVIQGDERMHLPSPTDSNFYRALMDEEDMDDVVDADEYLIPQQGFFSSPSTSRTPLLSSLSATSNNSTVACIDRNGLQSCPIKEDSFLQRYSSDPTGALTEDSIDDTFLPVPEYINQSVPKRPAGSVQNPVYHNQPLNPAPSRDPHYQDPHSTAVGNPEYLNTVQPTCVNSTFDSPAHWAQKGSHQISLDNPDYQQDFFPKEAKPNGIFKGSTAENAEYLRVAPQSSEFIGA
# method description: Ba/F3 viability assay (CellTiter-Glo), DT
# Format: cell-based
# experimental conditions: anti-proliferation, read-out: BaF3 DT IC50
observation type: GI50

C[C@H]1CCOc2c(cnn2C)-c2nccc(n2)Nc2cc3c(cn2)c(N2CCN(C4CC4)CC2)nn31: 100 to 1000 nM
CCn1cc(CN2CCN(C)CC2)cc1-c1nn2c3cc(ncc13)Nc1ccnc(n1)-c1cnn(C)c1OCCC2C (stereo not shown): 10 to 100 nM
C[C@H]1CCOc2c(cnn2C)-c2nccc(n2)Nc2cc3c(cn2)c(-c2cccc(OCCN(C)C)c2)nn31: < 10 nM
C[C@H]1CCOc2c(cnn2C)-c2nccc(n2)Nc2cc3c(cn2)c(N2CC[C@H](N(C)CCF)C2)nn31: 10 to 100 nM
C[C@H]1CCOc2c(cnn2C)-c2nccc(n2)Nc2cc3c(cn2)c(-c2cc(CN(C)C)ccn2)nn31: 10 to 100 nM
CC1CCCOc2c(cnn2C)-c2nccc(n2)Nc2cc3c(cn2)c(-c2nnc(CN4CCN(C)CC4)o2)nn31 (stereo not shown): 100 to 1000 nM
C[C@H]1CCOc2c(cnn2C)-c2nccc(n2)Nc2cc3c(cn2)c(N2CC[C@H](N(C)C)C2)nn31: 10 to 100 nM

Origin of values: patent US20230148005A1
